// provenance: PubChem BioAssay AID624066

assayed target: Insulin-degrading enzyme (Homo sapiens)
method description: fluorescent artefact check on IDE activity – biochemical, fluorogenic FRET1 peptide, fluorescence, powder samples, artefact control for IDE inhibitor project, late-stage follow-up (AID 624066)
details: recombinant IDE
Calls of active or inactive are those of the source.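 The calls were made as follows: active = IC50 of 10 µM or lower; inactive = IC50 above 10 µM.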
metric name: IC50

> print(dat)
                                   compound  metric.name      measured.result
1  Cn1c(SCc2nc3ccccc3[nH]2)nnc1-c1cccc(Cl)c1         IC50  > 100 µM (inactive)
2    O=C(C1CC1)N1CCN(c2ccnc3cc(Cl)ccc23)CC1         IC50  > 100 µM (inactive)
3  COc1ccc(C(=O)N2CCN(C(=O)C3CCc4ccccc4O3)CC2)cc1OC (stereo not drawn)         IC50   > 10 µM (inactive)
